# TARGET_OR_TEST_SYSTEM: mutant MGL (Homo sapiens, UniProt Q99685, L169S/L176S)
# Construct: purified mutant MGL (mut-MGLL 11-313 L179S L186S)
# Sequence (Q99685 1-303 L169S/L176S): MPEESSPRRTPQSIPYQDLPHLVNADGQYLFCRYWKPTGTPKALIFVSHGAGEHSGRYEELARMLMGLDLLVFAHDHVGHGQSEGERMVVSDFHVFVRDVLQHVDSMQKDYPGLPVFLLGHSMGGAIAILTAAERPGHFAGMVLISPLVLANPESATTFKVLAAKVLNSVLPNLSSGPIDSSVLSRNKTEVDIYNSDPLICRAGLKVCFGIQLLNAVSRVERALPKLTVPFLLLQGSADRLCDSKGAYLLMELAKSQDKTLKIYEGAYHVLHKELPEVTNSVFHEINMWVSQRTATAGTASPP
# TEST_DETAILS: MGL ThermoFluor assay - mutant
# Format: binding
# CONDITIONS_USED: 0.07 mg/ml mutant MGL, pH=7.0; read-out: MGL mutant ThermoFluor Kd
OUTCOME_MEASURE: pKd
On this scale, pKd is minus log10 of a concentration expressed in M (mol/L).

COMPOUND	VAL
O=C(c1ccc(-c2ccccc2)cc1)N1CC(C2CCN(C(=O)c3nccs3)CC2)C1 [Cpd 2]	8.05
O=C(c1ccc(-c2ccc(C(F)(F)F)s2)cc1)N1CCC(C2CN(C(=O)c3ccc[nH]3)C2)CC1 [Cpd 56]	8.26
Cc1c(C(=O)N2CCC(C3CN(C(=O)c4ccc[nH]4)C3)CC2)sc2cc(C(F)(F)F)ccc12 [Cpd 62]	8.89

Could you now look at the following compound, please?
Measured pKd of O=C(c1ccc2nc(-c3ccccc3)oc2c1)N1CC(C2CCN(C(=O)c3cscn3)CC2)C1 [Cpd 34] : 6.70
